The measured values listed here are drawn from the supplement of paper PMC11061612.

Would you mind telling me the reported Bliss excess of each entry?
- Tested on: LNCaP-Clone-FGC (Prostate Carcinoma);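 also: after 72 h of two-drug dosing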
- ASSAY NAME: Bliss excess, mean over the matrix (fraction); higher = more synergy

| COMPOUND | Bliss excess |
| --- | --- |
| CN(C)CCCOc1ccc(-c2ccc3ncc4c(c3c2)n(C2CCOCC2)c(=O)n4C)cn1 [AZD0156] + CCN(CCO)CCCOc1ccc2c(Nc3cc(CC(=O)Nc4cccc(F)c4)[nH]n3)ncnc2c1 [AZD2811] (first compound max 1 µM, 7x7, partner max 1 µM) | -0.0257 |

Would you mind giving Bliss excess for every compound in the list below?
1. Cc1c2c(nn1C)CSCc1cc(n(C)n1)CSc1cc(c3ccccc3c1)OCCCc1c(C(=O)O)n(C)c3c-2c(Cl)ccc13 [AZD5991] + C1CN(CCC1(C(=O)N[C@@H](CCO)C2=CC=C(C=C2)Cl)N)C3=NC=NC4=C3C=CN4 [Capivasertib] (first compound max 1 µM, 7x7, partner max 3 µM)
2. CC(=O)c1c(C)c2cnc(Nc3ccc(N4CCNCC4)cn3)nc2n(C2CCCC2)c1=O [Palbociclib] + CN(CC[C@H](CSC1=CC=CC=C1)NC2=C(C=C(C=C2)S(=O)(=O)NC(=O)C3=CC=C(C=C3)N4CCC(CC4)[C@H](C5=CC=CC=C5C6=CC=C(C=C6)Cl)O)S(=O)(=O)C(F)(F)F)CCO [AZD4320] (first compound max 10 µM, 7x7, partner max 1 µM)
3. CN(C)CCCOc1ccc(-c2ccc3ncc4c(c3c2)n(C2CCOCC2)c(=O)n4C)cn1 [AZD0156] + C=CCn1c(=O)c2cnc(Nc3ccc(N4CCN(C)CC4)cc3)nc2n1-c1cccc(C(C)(C)O)n1 [AZD1775] (first compound max 1 µM, partner max 1 µM)

[-0.043, -0.0902, -0.045]

Would you mind giving Bliss excess for every compound in the list below?
1. CN(CCO)CC[C@H](CSc1ccccc1)Nc1ccc(S(=O)(=O)NC(=O)c2ccc(N3CCC([C@@H](O)c4ccccc4-c4ccc(Cl)cc4)CC3)cc2)cc1S(=O)(=O)C(F)(F)F [AZD4320] + CCN(CCO)CCCOc1ccc2c(Nc3cc(CC(=O)Nc4cccc(F)c4)[nH]n3)ncnc2c1 [AZD2811] (first compound max 1 µM, 7x7, partner max 1 µM)
2. Cc1c2c(nn1C)CSCc1cc(n(C)n1)CSc1cc(c3ccccc3c1)OCCCc1c(C(=O)O)n(C)c3c-2c(Cl)ccc13 [AZD5991] + CC1(C)CCC(CN2CCN(c3ccc(C(=O)NS(=O)(=O)c4ccc(NCC5CCOCC5)c([N+](=O)[O-])c4)c(Oc4cnc5[nH]ccc5c4)c3)CC2)=C(c2ccc(Cl)cc2)C1 [Venetoclax] (first compound max 1 µM, 7x7, partner max 1 µM)

1. -0.0105
2. -0.0476
